The measurements presented in this section are drawn from patent US20100311729A1.

# ASSAYED SYSTEM: PI3K alfa (Homo sapiens)
# Construct: for the p110-a subunit (with a deletion of the first 20 amino acids); His tag (C); made in house; host or cells: baculovirus; Tn5 (Trichoplusia ni) or TiniPro insect cells
# Sequence (P42336 with tags, fused parts or gaps limits assumed): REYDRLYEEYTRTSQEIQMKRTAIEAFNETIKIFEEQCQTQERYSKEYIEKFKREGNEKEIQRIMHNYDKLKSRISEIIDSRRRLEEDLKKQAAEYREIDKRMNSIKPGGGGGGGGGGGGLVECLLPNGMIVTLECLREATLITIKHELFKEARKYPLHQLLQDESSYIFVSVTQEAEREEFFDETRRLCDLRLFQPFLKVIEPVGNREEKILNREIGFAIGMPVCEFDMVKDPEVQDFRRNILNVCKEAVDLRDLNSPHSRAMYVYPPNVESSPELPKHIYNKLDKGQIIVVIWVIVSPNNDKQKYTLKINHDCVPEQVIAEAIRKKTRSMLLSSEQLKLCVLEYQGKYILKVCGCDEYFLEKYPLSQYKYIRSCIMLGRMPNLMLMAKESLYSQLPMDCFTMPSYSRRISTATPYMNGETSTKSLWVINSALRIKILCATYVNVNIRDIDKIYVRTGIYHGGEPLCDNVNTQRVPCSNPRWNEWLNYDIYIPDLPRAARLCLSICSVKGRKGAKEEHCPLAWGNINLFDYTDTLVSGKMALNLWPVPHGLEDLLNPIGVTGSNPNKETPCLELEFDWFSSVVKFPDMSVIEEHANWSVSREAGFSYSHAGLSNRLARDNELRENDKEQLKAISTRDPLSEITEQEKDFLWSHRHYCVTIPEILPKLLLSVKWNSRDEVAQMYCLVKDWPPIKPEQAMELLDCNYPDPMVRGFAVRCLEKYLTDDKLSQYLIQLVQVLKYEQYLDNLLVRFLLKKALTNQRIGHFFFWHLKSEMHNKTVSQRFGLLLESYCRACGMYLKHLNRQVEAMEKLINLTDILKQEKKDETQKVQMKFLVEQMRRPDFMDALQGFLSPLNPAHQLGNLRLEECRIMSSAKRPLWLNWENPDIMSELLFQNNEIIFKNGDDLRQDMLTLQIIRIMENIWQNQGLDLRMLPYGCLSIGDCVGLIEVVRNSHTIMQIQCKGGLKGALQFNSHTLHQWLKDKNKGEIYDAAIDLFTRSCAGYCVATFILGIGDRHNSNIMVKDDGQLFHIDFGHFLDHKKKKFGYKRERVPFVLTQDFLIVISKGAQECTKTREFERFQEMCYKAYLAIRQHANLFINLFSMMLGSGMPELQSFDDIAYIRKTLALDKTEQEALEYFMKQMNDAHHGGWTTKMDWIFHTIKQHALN
# ASSAY METHOD TEXT: PI3 kinase assay (Kinase-Glo luminescence), PI3K alfa
# Assay type: biochemical
# EXPERIMENTAL PARAMETERS: Enzymatic Data; read-out: PI3K alfa IC50 [umol]
pIC50: −log10 of the molar value.
MEASURED ATTRIBUTE: pIC50

[1] Nc1ncc(-c2ccc3ncc(-c4ccc(C(=O)NCCN5CCOCC5)c(F)c4)n3n2)cc1C(F)(F)F [Example 99]
[2] Nc1ncc(-c2cnc3ccc(-c4ccc(OCCCN5CCCC5=O)cc4)nn23)cc1C(F)(F)F [Example 89]
Input line: Hi, I'm comparing two records. Which one has the lower pIC50, 1 or 2 ? To answer, give the label that identifies your chosen option.
Output line: 2

[I] Nc1ncc(-c2ccc3ncc(-c4ccc(S(=O)(=O)N5CCOCC5)cc4)n3n2)cc1C(F)(F)F [Example 102]
[II] Nc1ncc(-c2cnc3ccc(-c4ccc5c(c4)OCO5)nn23)cc1C(F)(F)F [Example 155]
Input line: Hi, I'm comparing two records. Which one has the lower pIC50, I or II ? To answer, give the label that identifies your chosen option.
Output line: II
(II: 7.15, I: 7.37)

----------
pIC50: −log10 of the molar value.
Let's go through some pIC50 measurements on PI3K gamma (Homo sapiens, UniProt P48736) together.
Sequence (P48736 144-1102 limits assumed): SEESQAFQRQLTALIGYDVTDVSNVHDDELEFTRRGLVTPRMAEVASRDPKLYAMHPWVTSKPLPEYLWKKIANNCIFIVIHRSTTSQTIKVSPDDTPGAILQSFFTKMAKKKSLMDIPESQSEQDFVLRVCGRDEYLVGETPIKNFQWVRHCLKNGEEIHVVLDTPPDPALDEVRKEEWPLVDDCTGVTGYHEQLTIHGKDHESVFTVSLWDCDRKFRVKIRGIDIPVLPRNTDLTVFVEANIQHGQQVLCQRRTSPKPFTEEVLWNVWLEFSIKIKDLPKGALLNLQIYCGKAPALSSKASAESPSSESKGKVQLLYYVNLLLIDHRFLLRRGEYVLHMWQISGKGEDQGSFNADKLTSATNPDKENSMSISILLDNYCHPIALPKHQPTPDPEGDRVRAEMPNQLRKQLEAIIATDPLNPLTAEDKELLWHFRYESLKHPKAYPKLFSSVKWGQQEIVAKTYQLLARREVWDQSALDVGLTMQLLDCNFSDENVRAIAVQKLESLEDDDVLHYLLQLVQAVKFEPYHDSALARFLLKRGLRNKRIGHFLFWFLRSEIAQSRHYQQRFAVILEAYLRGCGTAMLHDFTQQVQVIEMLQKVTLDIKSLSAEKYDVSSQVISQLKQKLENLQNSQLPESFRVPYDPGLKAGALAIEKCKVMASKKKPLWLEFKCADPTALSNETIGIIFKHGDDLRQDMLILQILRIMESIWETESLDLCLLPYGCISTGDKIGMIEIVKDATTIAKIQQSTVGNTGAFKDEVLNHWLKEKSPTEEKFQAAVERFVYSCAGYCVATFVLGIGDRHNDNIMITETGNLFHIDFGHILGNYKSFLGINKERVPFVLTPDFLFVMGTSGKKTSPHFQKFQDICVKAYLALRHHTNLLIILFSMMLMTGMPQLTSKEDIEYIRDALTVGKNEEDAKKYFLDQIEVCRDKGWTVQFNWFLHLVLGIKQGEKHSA
MEASURED ATTRIBUTE: pIC50

Guide cases for pIC50, answers given:
Input line: Need pIC50, item `NCCn1cc(-c2ccc3ncc(-c4cnc(N)c(C(F)(F)F)c4)n3n2)ccc1=O`
Output line: 6.31

Input line: Need pIC50, item `Nc1ncc(-c2ccc3ncc(-c4ccc(C(=O)NCCCN5CCOCC5)cc4)n3n2)cc1C(F)(F)F`
Output line: 6.20

Input line: Need pIC50, item `COc1cc(-c2ccc3ncc(-c4cnc(N)c(C(F)(F)F)c4)n3n2)ccc1OCCN`
Output line: 6.40

Input line: Need pIC50, item `Nc1ncc(-c2ccc3ncc(-c4ccc(OCCCc5ccncc5)cc4)n3n2)cc1C(F)(F)F`
Output line: 5.68

Input line: Need pIC50, item `Nc1cnc(-c2cnc3ccc(-c4cnc(N)c(C(F)(F)F)c4)nn23)cn1`
Output line: 6.32

[a] CN(C)CCN1CCN(C(=O)c2ccc(-c3cnc4ccc(-c5cnc(N)c(C(F)(F)F)c5)nn34)cc2)CC1
[b] Nc1ncc(-c2cnc3ccc(-c4ccc(OCC5(CNC(=O)C6CC6)COC5)cc4)nn23)cc1C(F)(F)F
[c] COc1cc(-c2ccc3ncc(-c4cnc(N)c(C(F)(F)F)c4)n3n2)ccc1OCCNC(=O)C(C)C
[d] Nc1ncc(-c2ccc3ncc(-c4ccc(C(=O)N5CCN(CCO)CC5)cc4)n3n2)cc1C(F)(F)F
Input line: Sequence the entries by pIC50, beginning with the highest number. Sort the labels as requested; that list is your answer.
Output line: c, b, a, d
(c: 6.80, b: 6.34, a: 5.69, d: 5.16)

----------
# ASSAYED SYSTEM: PI3K beta (Homo sapiens, UniProt P42338)
# Construct: for the full-length p110-b subunit are generated and fused by overlapping PCR; His tag (C); Tn5 (Trichoplusia ni) or TiniPro insect cells
# Sequence (P42338 with tags, fused parts or gaps limits assumed): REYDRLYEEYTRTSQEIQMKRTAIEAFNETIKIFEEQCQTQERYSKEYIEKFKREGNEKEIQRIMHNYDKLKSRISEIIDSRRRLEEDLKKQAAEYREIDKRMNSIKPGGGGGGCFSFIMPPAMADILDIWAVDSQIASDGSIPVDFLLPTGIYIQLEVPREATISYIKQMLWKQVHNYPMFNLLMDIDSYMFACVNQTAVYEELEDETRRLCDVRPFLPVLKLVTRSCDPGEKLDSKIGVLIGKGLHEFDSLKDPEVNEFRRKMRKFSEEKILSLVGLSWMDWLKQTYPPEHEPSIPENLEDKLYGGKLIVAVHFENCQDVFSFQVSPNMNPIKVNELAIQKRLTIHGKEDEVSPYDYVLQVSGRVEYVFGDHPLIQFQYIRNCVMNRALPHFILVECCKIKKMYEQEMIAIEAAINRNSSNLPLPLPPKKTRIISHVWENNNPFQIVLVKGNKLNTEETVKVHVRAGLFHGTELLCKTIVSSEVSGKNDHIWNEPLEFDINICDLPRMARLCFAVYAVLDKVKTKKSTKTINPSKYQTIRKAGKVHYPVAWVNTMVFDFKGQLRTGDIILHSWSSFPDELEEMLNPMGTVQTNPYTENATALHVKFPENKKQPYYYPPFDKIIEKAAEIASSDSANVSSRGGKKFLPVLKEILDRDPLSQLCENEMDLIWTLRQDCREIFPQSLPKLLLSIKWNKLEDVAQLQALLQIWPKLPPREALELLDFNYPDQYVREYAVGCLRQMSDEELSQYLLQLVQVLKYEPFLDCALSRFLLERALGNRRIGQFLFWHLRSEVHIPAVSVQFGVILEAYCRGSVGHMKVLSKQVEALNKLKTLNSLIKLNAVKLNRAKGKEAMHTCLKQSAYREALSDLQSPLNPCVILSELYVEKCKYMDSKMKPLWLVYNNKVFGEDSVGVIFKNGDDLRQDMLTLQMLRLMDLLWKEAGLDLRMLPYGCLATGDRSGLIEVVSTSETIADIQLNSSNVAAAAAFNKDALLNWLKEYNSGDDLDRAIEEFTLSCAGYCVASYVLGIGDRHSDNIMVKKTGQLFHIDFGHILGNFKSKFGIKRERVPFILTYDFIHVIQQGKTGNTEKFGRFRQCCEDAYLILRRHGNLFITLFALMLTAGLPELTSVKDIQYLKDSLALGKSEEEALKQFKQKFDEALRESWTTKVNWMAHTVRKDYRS
# ASSAY METHOD TEXT: PI3 kinase assay (Kinase-Glo luminescence), PI3K beta
# EXPERIMENTAL PARAMETERS: Enzymatic Data; read-out: PI3K beta IC50 [umol]
pIC50: −log10 of the molar value.
MEASURED ATTRIBUTE: pIC50

Guide cases for pIC50, answers given:
Input line: Need pIC50, item Nc1ncc(-c2ccc3ncc(-c4ccc(S(=O)(=O)NCCN5CCOCC5)cc4)n3n2)cc1C(F)(F)F [Example 124]
Output line: 6.80

Input line: Need pIC50, item Nc1ncc(-c2cnc3ccc(-c4ccc(OCCCNC(=O)C5CC5)nc4)nn23)cc1C(F)(F)F [Example 177]
Output line: 6.48

Input line: Need pIC50, item Nc1ncc(-c2ccc3ncc(-c4ccc(C(=O)NCCn5ccnc5)cc4F)n3n2)cc1C(F)(F)F [Example 156]
Output line: 7.14

[1] NCCOc1ccc(-c2ccc3ncc(-c4cnc(N)c(C(F)(F)F)c4)n3n2)cc1 [Example 74]
[2] O=C1CCCN1CCOc1ccc(-c2ccc3ncc(-c4cnc5[nH]ccc5c4)n3n2)cc1 [Example 98]
[3] COc1cc(-c2ccc3ncc(-c4cnc(N)c(C(F)(F)F)c4)n3n2)ccc1OCCNC(=O)C1CC1 [Example 61]
[4] NCC1(COc2ccc(-c3ccc4ncc(-c5cnc(N)c(C(F)(F)F)c5)n4n3)cc2)COC1 [Example 169]
Input line: Hey, can you sort those compounds up there by pIC50, smallest first? Sort the labels as requested; that list is your answer.
Output line: 2, 3, 1, 4
